target: T1, PD1-hFc (UniProt Q15116 25-167); assay: ELISA on coated PD1-hFc, anti-human kappa HRP, one site-specific binding fit
T1 construct: ELISA coat at 1 ug/ml; not shown: hFc (human Fc)
T1 sequence (Q15116 25-167): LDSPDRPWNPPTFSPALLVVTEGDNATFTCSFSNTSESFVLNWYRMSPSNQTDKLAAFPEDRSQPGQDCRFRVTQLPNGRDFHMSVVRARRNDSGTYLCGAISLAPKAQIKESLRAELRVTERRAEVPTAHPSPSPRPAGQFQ

BINDER	Kd / nM
chimeric anti-human PD-1 2B6 antibody (antibody, V domains shown, also called mAb 2B6; M-M) VH: EVKLVESGGGLVKPGGSLKLSCAAAGFTFSSYTMSWVRQTPAKRLEWVATISGGGANIYYPDSVKGRFTISRDNARNTLYLQMSSLRSEDTAMYYCVSPYYAIDFWGQGTSVTVSS VL: DTVMTQSDKFMSTSVGDRVSITCKASQDVGSAVAWYQQKPGQSPKLLIYWASTRHTGVPDRFTGSGSGTDFTLTISNVQSEDLADYFCQQYSTYTWTFGGGTKLEIK	0.495
humanized antibody 2B6 HdB1 Hd (antibody, V domains shown, Heavy chain HdB1 with light chain Hd) VH: EVQLVESGGGLVQPGGSLRLSCKASGFTFSSYTMSWVRQAPGKGLEWVATISGGGANIYYPDSVKGRFTISRDNSKNTLYLQMNSLRAEDTAVYYCVSPYYAIDFWGQGTLVTVSS VL: DIQMTQSPSSLSASVGDRVTITCKASQDVGSAVAWYQQKPGKAPKLLIYWASTRHTGVPSRFSGSGSGTDFTLTISSLQPEDFATYYCQQYSTYTWTFGQGTKVEIK	0.368
humanized 2B6 4D5 (2B6-HdHd) (antibody, V domains shown, Heavy chain Hd with light chain Hd) VH: EVQLVESGGGLVQPGGSLRLSCKASGFTFSSYTMSWVRQAPGKGLEWVATISGGGANIYYPDSVKGRFTISRDDSKNTLYLQMNSLRAEDTAVYYCARPYYAIDFWGQGTLVTVSS VL: DIQMTQSPSSLSASVGDRVTITCKASQDVGSAVAWYQQKPGKAPKLLIYWASTRHTGVPSRFSGSGSGTDFTLTISSLQPEDFATYYCQQYSTYTWTFGQGTKVEIK	179
humanized antibody 2B6 HuB1 Hd (antibody, V domains shown, Heavy chain HuB1 with light chain Hd) VH: EVQLVESGGGLVQPGGSLRLSCAASGFTFSSYTMSWVRQAPGKGLEWVATISGGGANIYYPDSVKGRFTISRDNSKNTLYLQMNSLRAEDTAVYYCVSPYYAIDFWGQGTLVTVSS VL: DIQMTQSPSSLSASVGDRVTITCKASQDVGSAVAWYQQKPGKAPKLLIYWASTRHTGVPSRFSGSGSGTDFTLTISSLQPEDFATYYCQQYSTYTWTFGQGTKVEIK	0.403
